molecular target: IDO1 (Homo sapiens, UniProt P14902); assay: IDO1 Cellular Assay in Hela Cells Stimulated with IFNγ; type: cell-based; design: endogenous in cells; host or cells: HeLa cells stimulated with IFNγ (100 ng/mL); details: Hela cells stimulated with IFNγ 100 ng/mL, 300 uM L-tryptophan, about 48 hours, fluorescence readout
Sequence (P14902 whole entry): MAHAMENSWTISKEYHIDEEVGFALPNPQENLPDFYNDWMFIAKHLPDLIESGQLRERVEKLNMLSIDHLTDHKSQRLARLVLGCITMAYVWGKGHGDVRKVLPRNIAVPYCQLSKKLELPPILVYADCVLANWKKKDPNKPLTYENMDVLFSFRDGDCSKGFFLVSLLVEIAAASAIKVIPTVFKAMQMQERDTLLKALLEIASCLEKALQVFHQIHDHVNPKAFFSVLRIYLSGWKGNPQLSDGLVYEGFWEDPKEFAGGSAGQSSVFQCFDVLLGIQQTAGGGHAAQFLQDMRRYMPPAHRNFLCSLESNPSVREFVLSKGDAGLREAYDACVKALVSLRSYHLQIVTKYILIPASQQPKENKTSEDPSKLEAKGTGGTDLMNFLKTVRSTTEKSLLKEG
pIC50: −log10 of the molar value.
Assay readout: pIC50

Compound | Measured on | pIC50
CCCNC(=O)C1(c2ccc(NC(=O)c3cc(C)no3)cc2)CCC1 | IDO1 (Homo sapiens, UniProt P14902) | 6.03

a = CCCNC(=O)C1(c2ccc(NC(=O)c3cc(Cl)cc(Cl)c3)cc2)CCC1
b = CC1CC1NC(=O)C1(c2ccc(NC(=O)c3cccc(Cl)c3)cc2)CCC1 (single isomer, unassigned) [Example 22]
**Query** Among a and b , which shows a numerically higher pIC50 result? Reply with the label of the item you choose.
**Result** a

1 = O=C(Nc1ccc(C2(C(=O)NCCC(F)(F)F)CC(F)(F)C2)cc1)c1cccc(Cl)c1
2 = CCC1CC1NC(=O)C1(c2ccc(NC(=O)c3cccc(Cl)c3)cc2)CCC1 (stereo not drawn)
**Query** Kindly compare 1 with 2 and tell me which has the lower pIC50 figure. API: response body contains the label of the selected item.
**Result** 1
(1: 7.25, 2: 8.10)

P = O=C(Nc1ccc(C2(C(=O)Nc3ccc(F)nc3)CCC2)cc1)c1cccc(Cl)c1
Q = O=C(Nc1ccc(C2(NC(=O)c3ccc(Cl)c(Cl)c3)CCC2)cc1)c1cccc(Cl)c1
**Query** # return whichever of P and Q has the smaller pIC50 State the label of the item chosen.
**Result** Q

P = CC(NC(=O)C1(c2ccc(NC(=O)c3cccc(Cl)c3)cc2)CCC1)C1CC1 (stereo not drawn)
Q = O=C(Nc1ccc(C2(C(=O)Nc3ccc(Cl)cc3)CCC2)cc1)c1cccc(Cl)c1
**Query** # return whichever of P and Q has the smaller pIC50 # reply format: chosen label
**Result** P
